Experiment: enhancers of single-cell hiPSC survival, primary screen, ATPlite luminescence (AID 602274);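 further: cells exposed to compounds for 16 hours before the ATP read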
Settings: at 20 µM, hits give high values, 100% = ROCK inhibitor wells, 0% = DMSO
Screen size: about 360,000 compounds; about 160 (0.044%) were called active. The sample as a whole holds a higher share of actives than the screen did.

{"compound": "CCCNc1c(N)c(=O)c1=O", "survival enhancement [%]": -0.6}
{"compound": "Cc1cc(=O)n2nc(N3CCCC(C(=O)NCCC4=CCCCC4)C3)sc2n1 (stereo unspecified)", "survival enhancement [%]": 1.7}
{"compound": "CC(=NCc1ccc2c(c1)OCO2)C1=C(O)c2ccccc2C1=O", "survival enhancement [%]": 2.2}
{"compound": "O=C(NCC(c1ccco1)N1CCc2ccccc2C1)c1ccccc1Cl (stereo unspecified)", "survival enhancement [%]": -0.3}
{"compound": "CCc1c(C)sc(NC(=O)c2cccs2)c1C(N)=O", "survival enhancement [%]": -1.4}
{"compound": "O=C(OCCN1C(=O)c2ccccc2C1=O)[C@@H]1CC(O)CN1S(=O)(=O)c1ccccc1[N+](=O)[O-] (stereo partly specified)", "survival enhancement [%]": -1.2}
{"compound": "O=C(Nc1ccc(N2CCN(C(=O)c3ccccc3)CC2)c(Cl)c1)c1ncn[nH]1", "survival enhancement [%]": 0.4}
{"compound": "Cc1cccc(C(=O)Nc2ccccc2C(=O)NCc2cccnc2)c1", "survival enhancement [%]": 7.7}
{"compound": "COC(=O)CCSc1cc([N+](=O)[O-])cc2c1c(C1OCCS1)nn2-c1ccccc1 (stereo unspecified)", "survival enhancement [%]": 19.1}
{"compound": "CCCCNC(=O)CCn1nc(-c2ccc(Cl)cc2)ccc1=O", "survival enhancement [%]": 0}
{"compound": "Cc1c(C=O)c2ccccn2c1C(=O)c1ccncc1", "survival enhancement [%]": 0.1}
{"compound": "O=C(CCc1[nH]c2ccccc2c1Sc1ccccc1)N(CCO)CCO", "survival enhancement [%]": -1}
{"compound": "Cc1noc(C)c1CSc1nc2cc(S(=O)(=O)N3CCOCC3)ccc2o1", "survival enhancement [%]": 8.5}
{"compound": "CN(Cc1ccc(C(F)(F)F)cc1)C(=O)[C@H]1O[C@@H](n2cnc3c(N)ncnc32)[C@H](O)[C@@H]1O", "survival enhancement [%]": 20.3}
{"compound": "COc1ccccc1P(=O)(c1ccccc1)c1ccccc1NC(C)=O (stereo unspecified)", "survival enhancement [%]": -0.7}
{"compound": "C[n+]1ccccc1C1CCCC/C1=N\\Nc1ccc([N+](=O)[O-])cc1[N+](=O)[O-] (stereo unspecified)", "survival enhancement [%]": -1.7}

###

// survival enhancement lookup, one value per entry
Test: enhancers of single-cell hiPSC survival, primary screen, ATPlite luminescence (AID 602274);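 further: cells exposed to compounds for 16 hours before the ATP read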
Conditions: at 20 µM, hits give high values, 100% = ROCK inhibitor wells, 0% = DMSO
Among all 360,000 compounds or so, about 160 (0.044%) were called active. The entries come from a sample that favours actives as a whole.

{"compound": "Cc1ccc(S(=O)(=O)N2CCOCC2)cc1NC(=O)COC(=O)c1cnccn1", "unit_tag": "%", "survival enhancement": -1.4}
{"compound": "O=S(=O)(/N=C(/Nc1ccccc1)c1ccccc1)c1cccs1", "unit_tag": "%", "survival enhancement": 4}
{"compound": "O=[n+]1c2c(n([O-])c3cc(Br)ccc31)CCC2", "unit_tag": "%", "survival enhancement": 3.1}
{"compound": "CCNC(=O)N1CCCC(C(=O)c2ccc(-c3ccccc3)cc2)C1 (stereo not given)", "unit_tag": "%", "survival enhancement": 1.4}
{"compound": "CC(/C=C/c1ccco1)=N/NC(=O)C1COc2ccccc2O1 (stereo not given)", "unit_tag": "%", "survival enhancement": -0.2}
{"compound": "Cc1c(-c2nn(C)c(=O)c3ccccc23)oc2ccc(F)cc2c1=O", "unit_tag": "%", "survival enhancement": -1.5}
{"compound": "CN(C)S(=O)(=O)c1ccc(N2CCCC2)c(C(=O)Nc2ccc(Br)cc2F)c1", "unit_tag": "%", "survival enhancement": -0.6}
{"compound": "O=C(COC(=O)Cn1cnc2ccccc2c1=O)NCC12CC3CC(CC(C3)C1)C2", "unit_tag": "%", "survival enhancement": -0.2}
{"compound": "CC1CCCCC1NC(=O)CCS(=O)(=O)c1cccc2nonc12 (stereo not given)", "unit_tag": "%", "survival enhancement": 1.2}
{"compound": "CCCOC(=O)CC1C(=O)NCCN1Cc1ccc(F)cc1 (stereo not given)", "unit_tag": "%", "survival enhancement": 0.4}

###

Assay: enhancers of single-cell hiPSC survival, primary screen, ATPlite luminescence (AID 602274);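 further: cells exposed to compounds for 16 hours before the ATP read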
Conditions: at 20 µM, hits give high values, 100% = ROCK inhibitor wells, 0% = DMSO
Hit rate of the full screen: of about 360,000 compounds, about 160 (0.044%) were called active. The sample as a whole holds a higher share of actives than the screen did.
// survival enhancement lookup, one value per entry

{"compound": "O=C1CCC[C@@H]2CC(N3CCCCC3)C[C@@H]3CCN1[C@H]23 (stereo partly specified)", "survival enhancement / %": -1.2}
{"compound": "COCCNC(=S)c1ccc(OC)cc1", "survival enhancement / %": 5.9}
{"compound": "Cc1nc(C(F)(F)F)ccc1C(=O)N1CCC1(C)C(=O)NS(=O)(=O)c1ccc(F)cc1F (stereo unspecified)", "survival enhancement / %": -1.2}
{"compound": "CC(C)CN(CC(C)C)CC(O)CN(c1ccccc1)S(=O)(=O)c1ccccc1[N+](=O)[O-] (stereo unspecified)", "survival enhancement / %": -0.3}
{"compound": "COc1cccc(OC)c1C(=O)Nc1ccc(Cc2ccncc2)cc1", "survival enhancement / %": 0.6}
{"compound": "Cc1cccc(-n2c(SCC(N)=O)nc3c(c2=O)C2(CCCCC2)Cc2ccccc2-3)c1", "survival enhancement / %": -2.5}
